Taken from ChEMBL document CHEMBL4152290.

Stability by entry:
# assay name: Stability of the compound in PBS containing 10% DMSO at 25 degC measured after 3 hrs by HPLC analysis
# Type: physicochemical
# details: buffer
Provide only the numeric value, understood in %.

Some compounds with recorded Stability:
1. O=C(CSc1nc2ccccc2c(=O)[nH]1)NC1CCCCC1; 108
2. O=C(CSc1nc2ccccc2c(=O)[nH]1)NCC1CCCCC1; 103
3. O=C(CSc1nc2ccccc2c(=O)[nH]1)NC1CCCCCC1; 80
4. CC1CCCC(NC(=O)CSc2nc3ccccc3c(=O)[nH]2)C1 (configuration not stated); 101

Input: Specify Stability for CC1CCCCC1NC(=O)CSc1nc2ccccc2c(=O)[nH]1 (configuration not stated) and stop.
Output: 128

Input: Determine its reported Stability: C[C@H]1CC[C@H](NC(=O)CSc2nc3ccccc3c(=O)[nH]2)CC1
Output: 76

Input: Give the value of Stability reported for the following: CC1CCC(NC(=O)CSc2nc3ccccc3c(=O)[nH]2)CC1 (configuration not stated)
Output: 97
